We begin with a simple list: items and their reported growth.
Test system: SK-MEL-5 melanoma
Experiment: NCI-60 one-dose screen, 48 h (100 = growth as untreated, 0 = no growth, -100 = all killed)
Details: 10 µM unless noted
The panel holds about 83,000 compounds, 20% with a hit somewhere; the sample as a whole holds those more often. Active and inactive are the calls of the source. How the source made its calls: active means growth percent below 10; inactive means the rest.
measurement-kind: growth

{"molecule": "NCCOc1ncccc1/C=C1\\c2ccccc2-c2ccc(F)cc21", "observed": "25.1% (inactive)"}
{"molecule": "S=C1CCCC(=S)N1", "observed": "107% (inactive)"}
{"molecule": "COc1ccc(C2C3=C(COC3=O)N(CCO)c3cc4c(cc32)CCC4)cc1OC (stereo not given)", "observed": "28% (inactive)"}
{"molecule": "Cn1cc(-c2ccc3ncc(-c4ccc(CC(=O)Nc5cc(C(C)(C)C)no5)cc4)nc3c2)cn1", "observed": "28.7% (inactive)"}
{"molecule": "COc1ccc(N)c(-c2cc3c(c4c2[nH]c2ccc(OC)cc24)CCCC3)c1", "observed": "94.7% (inactive)"}
{"molecule": "N#Cc1c(N)nc2c(c1N)C(c1ccc(F)cc1)c1ccc(N)cc1O2 (stereo not given)", "observed": "96.1% (inactive)"}
{"molecule": "CCc1ccc(CNCC(O)c2ccccc2)cc1 (stereo not given)", "observed": "68.6% (inactive)"}
{"molecule": "COc1ccccc1N1CCN(C(CNS(=O)(=O)c2ccc(Cl)cc2)c2cccnc2)CC1 (stereo not given)", "observed": "90.2% (inactive)"}
{"molecule": "CC(=O)c1ccc2oc(=O)n(Cc3ccc(C#N)cc3)c(=O)c2c1", "observed": "105% (inactive)"}
{"molecule": "COc1cc(/C=C2\\CCC/C(=C\\c3cc(CN4CCOCC4)c(O)c(OC)c3)C2=O)cc(CN2CCOCC2)c1O", "observed": "52.3% (inactive)"}

----------
Tested on: SF-539 CNS
Assay: NCI-60 one-dose screen, 48 h (100 = growth as untreated, 0 = no growth, -100 = all killed)
Conditions: 10 µM unless noted
The panel holds about 83,000 compounds, 20% with a hit somewhere; the sample as a whole holds those more often.
measurement-kind: growth (%)

{"compound": "O=c1c(-c2nc3ccccc3[nH]2)cc2ccccc2n1Cc1cn(Cc2ccc(F)cc2)nn1", "tested-target": "SF-539 CNS", "observed": -55.9}
{"compound": "COC(=O)/C(CCC=C(C)C)=C1\\[C@@H](OC(C)=O)C[C@@]2(C)[C@H]1C[C@@H](O)[C@H]1[C@@]3(C)CC[C@H](NCc4ccccc4)[C@@H](C)[C@@H]3CC[C@@]12C", "tested-target": "SF-539 CNS", "observed": 70}
{"compound": "CC1=C(C(=O)OCC2CCN(C(=O)OC(C)(C)C)CC2)[C@H](c2cccc(Br)c2)C2=C(CC(C)(C)CC2=O)N1", "tested-target": "SF-539 CNS", "observed": 41.2}
{"compound": "Cc1ccc(Cc2cnc(NC(=O)CN3C(=O)/C(=C\\c4ccccc4)SC3=S)s2)cc1", "tested-target": "SF-539 CNS", "observed": 100}
{"compound": "COc1cc(/C=C/C(=O)c2ccc(Nc3nc(NCCO)nc(N4CCOCC4)n3)cc2)cc(OC)c1OC", "tested-target": "SF-539 CNS", "observed": -5.44}
{"compound": "COc1cc(C(C)n2cc(-c3ccccc3)nn2)ccc1OC1CCCCC1 (stereo not drawn)", "tested-target": "SF-539 CNS", "observed": 65}
{"compound": "O=C(NC(=S)Nc1cccc(NC(=S)NC(=O)c2ccccc2)c1)c1ccccc1", "tested-target": "SF-539 CNS", "observed": 70}
{"compound": "O=C(O)CCCN1C(=O)C2C3CCC(C3)C2C1=O (stereo not drawn)", "tested-target": "SF-539 CNS", "observed": 103}

Data provenance is PubChem BioAssay (NCI).
